These measurements were taken from ChEMBL document CHEMBL5291721.

Values of AC50 reported for Glutamate receptor ionotropic, NMDA 1 (Rattus norvegicus) appear below.

Need AC50 of CCCCCCC(C)(C)c1cc(O)c2c(c1)OC(C)(C)C1CCC(=O)CC21 (centres undefined) [NABILONE] , thanks.
> 30 µM

Let us now turn to COc1c(C)c2c(c(O)c1C/C=C(\C)CCC(=O)OCCN1CCOCC1)C(=O)OC2 [MYCOPHENOLATE MOFETIL]
> 30 µM

Let us now turn to CCN1CCC[C@H]1CNC(=O)c1cc(S(N)(=O)=O)ccc1OC [LEVOSULPIRIDE]
> 10 µM

Let us now turn to CN1C(=O)COc2c(C(=O)NC3CN4CCC3CC4)cc(Cl)cc21 (centres undefined) [AZASETRON]
> 30 µM
